All values here come from patent US9527869B2.

Below, each entry is listed alongside its reported IC50.
Subject Of Test: PI3Kγ (Homo sapiens)
Measurement Description: In vitro determination of the PI3K enzyme inhibitory activity in the cell free assay (ADP-Glo Kinase Assay), PI3Kγ
Condition Set: ATP 30 μM, read-out: PI3K gamma inhibition

Provide measured IC50 value, entry: C[C@H](c1cc2ccccn2c1-c1ccc(CN2CCN(C)CC2)cn1)n1nc(-c2cc(O)cc(F)c2)c2c(N)ncnc21 (single isomer, unassigned) [Example 114a]
0.01 to 1 µM

Provide measured IC50 value, entry: CC(c1cc2ccccn2c1-c1ccc(C(=O)N2CCOCC2)cn1)n1nc(-c2cc(O)cc(F)c2)c2c(N)ncnc21 (centres unmarked) [Example 125]
0.01 to 1 µM

Provide measured IC50 value, entry: CC(Nc1ncnc(N)c1C#N)c1cc2ccccn2c1-c1ccccc1 (centres unmarked) [Example 32]
> 1 µM

Provide measured IC50 value, entry: N#Cc1c(N)ncnc1NCc1cc2ccccn2c1-c1cccc(F)c1 [Example 24]
> 1 µM

Provide measured IC50 value, entry: CC(c1cc2ccccn2c1-c1ccn(CCN(C)C)n1)n1nc(-c2cc(O)cc(F)c2)c2c(N)ncnc21 (centres unmarked) [Example 147]
> 1 µM

Provide measured IC50 value, entry: CC(Nc1ncnc(N)c1C#N)c1cc2ccccn2c1C1=CCOCC1 (centres unmarked) [Example 42]
> 1 µM

---

Subject Of Test: PI3Kγ (Homo sapiens, UniProt P48736)
Construct: purchased Millipore Ltd (Billerica, Mass.)
Sequence (P48736 whole entry): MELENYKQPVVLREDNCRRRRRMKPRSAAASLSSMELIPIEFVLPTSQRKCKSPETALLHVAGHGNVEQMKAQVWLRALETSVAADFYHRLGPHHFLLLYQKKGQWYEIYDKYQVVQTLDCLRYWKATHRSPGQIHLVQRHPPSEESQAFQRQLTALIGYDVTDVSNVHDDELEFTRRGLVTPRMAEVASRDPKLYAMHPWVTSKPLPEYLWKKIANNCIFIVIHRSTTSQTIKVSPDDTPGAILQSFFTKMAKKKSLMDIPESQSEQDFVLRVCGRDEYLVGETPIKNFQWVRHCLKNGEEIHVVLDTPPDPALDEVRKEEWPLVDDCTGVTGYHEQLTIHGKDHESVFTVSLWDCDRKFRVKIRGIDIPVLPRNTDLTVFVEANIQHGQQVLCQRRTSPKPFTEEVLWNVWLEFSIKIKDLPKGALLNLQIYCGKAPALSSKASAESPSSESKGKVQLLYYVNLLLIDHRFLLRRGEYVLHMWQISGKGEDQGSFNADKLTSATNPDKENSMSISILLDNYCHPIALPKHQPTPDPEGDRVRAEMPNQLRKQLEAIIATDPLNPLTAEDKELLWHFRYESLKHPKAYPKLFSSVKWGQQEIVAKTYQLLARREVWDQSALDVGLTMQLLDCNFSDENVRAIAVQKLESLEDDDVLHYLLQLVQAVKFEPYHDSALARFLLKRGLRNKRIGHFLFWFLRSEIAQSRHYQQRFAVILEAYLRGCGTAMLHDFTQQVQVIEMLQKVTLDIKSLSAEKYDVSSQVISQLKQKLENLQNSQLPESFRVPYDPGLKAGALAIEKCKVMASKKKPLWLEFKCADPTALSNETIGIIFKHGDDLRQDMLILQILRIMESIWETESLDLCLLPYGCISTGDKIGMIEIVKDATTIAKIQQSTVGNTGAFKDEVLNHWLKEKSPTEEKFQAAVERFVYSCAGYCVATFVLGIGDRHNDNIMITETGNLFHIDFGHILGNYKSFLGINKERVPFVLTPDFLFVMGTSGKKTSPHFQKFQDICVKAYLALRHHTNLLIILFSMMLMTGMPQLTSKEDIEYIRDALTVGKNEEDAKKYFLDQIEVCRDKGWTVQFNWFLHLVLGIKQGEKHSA
Measurement Description: In vitro determination of the PI3K enzyme inhibitory activity in the cell free assay (ADP-Glo Kinase Assay), PI3Kγ
Format: biochemical
Condition Set: ATP 30 μM, read-out: PI3K gamma inhibition
pIC50: −log10 of the molar value.
Below, each entry is listed alongside its reported pIC50.

- Compound: "Cc1ccccc1-c1c(CNc2ncnc(N)c2C#N)cn2ccccc12 [Example 29]"
  Observed Result: "< 6.00"
- Compound: "CC(c1cc2ccccn2c1-c1ccn(CCN(C)C)c(=O)c1)n1nc(-c2cc(O)cc(F)c2)c2c(N)ncnc21 (single isomer, unassigned) [Example 133b]"
  Observed Result: "6.00 to 8.00"
- Compound: "CC(c1cc2ccccn2c1-c1ccccn1)n1nc(-c2cccc(F)c2)c2c(N)ncnc21 (centres unmarked) [Example 66]"
  Observed Result: "< 6.00"
- Compound: "CCCC#Cc1c(C(C)Nc2ncnc(N)c2C#N)cc2ccccn12 (centres unmarked) [Example 43]"
  Observed Result: "< 6.00"
- Compound: "CC(c1cc2ccccn2c1-c1ccccn1)n1nc(-c2cc(O)cc(C#N)c2)c2c(N)ncnc21 (centres unmarked) [Example 77]"
  Observed Result: "6.00 to 8.00"
- Compound: "CC(c1cc2ccccn2c1-c1ccccn1)n1nc(-c2cc(F)cc(NS(C)(=O)=O)c2)c2c(N)ncnc21 (centres unmarked) [Example 74]"
  Observed Result: "< 6.00"
- Compound: "CC(c1cc2ccccn2c1-c1ccc(=O)n(CCN2CCOCC2)n1)n1nc(-c2cc(O)cc(F)c2)c2c(N)ncnc21 (centres unmarked) [Example 136]"
  Observed Result: "< 6.00"
- Compound: "CC(c1cc2ccccn2c1-c1cc(CN2CCN(C)CC2)ccn1)n1nc(-c2cc(O)cc(F)c2)c2c(N)ncnc21 (centres unmarked) [Example 116]"
  Observed Result: "6.00 to 8.00"
- Compound: "N#Cc1c(N)ncnc1NCc1cn2ccccc2c1-c1ccccn1 [Example 30]"
  Observed Result: "< 6.00"
- Compound: "CC(c1cc2ccccn2c1-c1ccccn1)n1nc(-c2cnc(N)s2)c2c(N)ncnc21 (centres unmarked) [Example 103]"
  Observed Result: "6.00 to 8.00"

Provide measured pIC50 value, entry: CC(c1cc2ccccn2c1-c1ccn(CCN(C)C)c(=O)c1)n1nc(-c2cc(O)cc(F)c2)c2c(N)ncnc21 (single isomer, unassigned) [Example 133a]
< 6.00

Provide measured pIC50 value, entry: Fc1ccccc1-c1c(CNc2ncnc3[nH]cnc23)cc2ccccn12 [Example 16]
< 6.00
